EXPERIMENT SUMMARY: Maximum plasma concentration when administered perorally at 15 mg/kg dose in rat
Format: ADME, organism-based
Design: dose 15 mg/kg, route oral
REPORTED CONDITIONS: po
READOUT LABEL: Cmax (µM)

                                   compound  unit_string  measured
0  O=C(O)CC(CC1CCN(C(=O)CCc2ccc3c(n2)NCCC3)CC1)C1CNc2ccccc2C1 (racemic)           µM        21

====

Property: pIC50; scope: individual compounds
TEST SYSTEM: Integrin alpha-IIb/beta-3 (Homo sapiens, UniProt P05106+P08514)
Sequence (P05106 27-788 limits assumed): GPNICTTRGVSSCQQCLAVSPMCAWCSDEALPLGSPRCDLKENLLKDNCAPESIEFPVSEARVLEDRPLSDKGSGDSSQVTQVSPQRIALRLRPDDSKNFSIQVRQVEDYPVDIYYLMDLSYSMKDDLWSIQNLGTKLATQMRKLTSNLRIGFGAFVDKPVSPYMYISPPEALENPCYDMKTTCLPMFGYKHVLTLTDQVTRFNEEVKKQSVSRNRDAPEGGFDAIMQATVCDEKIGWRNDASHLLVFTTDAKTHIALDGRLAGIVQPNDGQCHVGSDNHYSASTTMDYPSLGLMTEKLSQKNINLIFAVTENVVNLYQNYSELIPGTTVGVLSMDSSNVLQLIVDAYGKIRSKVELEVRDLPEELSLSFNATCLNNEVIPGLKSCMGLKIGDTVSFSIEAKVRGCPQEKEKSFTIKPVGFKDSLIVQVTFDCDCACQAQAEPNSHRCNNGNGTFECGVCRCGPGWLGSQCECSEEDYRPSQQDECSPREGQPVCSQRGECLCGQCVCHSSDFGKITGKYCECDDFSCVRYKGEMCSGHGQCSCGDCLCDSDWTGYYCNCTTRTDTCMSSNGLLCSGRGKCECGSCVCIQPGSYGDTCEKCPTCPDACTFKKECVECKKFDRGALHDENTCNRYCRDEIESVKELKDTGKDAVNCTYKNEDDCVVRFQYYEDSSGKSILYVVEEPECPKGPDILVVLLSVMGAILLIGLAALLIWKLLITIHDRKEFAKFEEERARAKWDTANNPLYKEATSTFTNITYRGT
Sequence (P08514 32-887 limits assumed): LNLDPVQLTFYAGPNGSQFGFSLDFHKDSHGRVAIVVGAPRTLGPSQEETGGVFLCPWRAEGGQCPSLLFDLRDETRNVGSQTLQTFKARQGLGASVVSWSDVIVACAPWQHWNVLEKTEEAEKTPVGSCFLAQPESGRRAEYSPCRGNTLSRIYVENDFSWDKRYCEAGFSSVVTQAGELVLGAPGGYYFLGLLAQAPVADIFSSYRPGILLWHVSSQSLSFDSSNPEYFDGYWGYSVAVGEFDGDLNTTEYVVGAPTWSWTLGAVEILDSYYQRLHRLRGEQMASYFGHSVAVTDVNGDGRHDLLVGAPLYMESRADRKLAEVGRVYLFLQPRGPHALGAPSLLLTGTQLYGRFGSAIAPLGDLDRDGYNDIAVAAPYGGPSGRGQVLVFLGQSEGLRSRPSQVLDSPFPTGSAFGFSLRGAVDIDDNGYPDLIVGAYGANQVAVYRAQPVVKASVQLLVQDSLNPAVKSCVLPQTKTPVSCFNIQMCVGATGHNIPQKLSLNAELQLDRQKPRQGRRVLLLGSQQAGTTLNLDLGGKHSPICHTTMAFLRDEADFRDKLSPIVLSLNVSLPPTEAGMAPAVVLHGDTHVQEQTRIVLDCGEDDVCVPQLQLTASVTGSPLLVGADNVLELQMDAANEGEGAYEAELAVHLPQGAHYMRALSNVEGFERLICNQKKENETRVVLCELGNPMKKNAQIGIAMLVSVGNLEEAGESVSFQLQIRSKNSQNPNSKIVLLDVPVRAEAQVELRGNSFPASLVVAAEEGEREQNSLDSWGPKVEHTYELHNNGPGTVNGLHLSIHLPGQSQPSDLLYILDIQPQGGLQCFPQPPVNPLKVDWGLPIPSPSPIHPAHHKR
Sequence (P08514 891-1039 limits assumed): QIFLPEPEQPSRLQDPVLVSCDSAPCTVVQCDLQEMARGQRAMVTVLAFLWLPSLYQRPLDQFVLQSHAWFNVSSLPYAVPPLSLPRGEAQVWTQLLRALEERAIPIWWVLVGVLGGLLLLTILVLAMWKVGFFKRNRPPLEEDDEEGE
EXPERIMENT SUMMARY: Inhibitory concentration for biotinylated fibrinogen binding to immobilized alpha IIb beta-3 integrin
pIC50: −log10 of the molar value.
READOUT LABEL: pIC50

>>> print(df.to_string())
                                    compound  lt_gt_eq  measured
 0  O=C(O)C[C@@H](C1CCN(C(=O)CCCc2ccc3c(n2)NCCC3)CC1)C1CNc2ccccc2C1 (stereo in doubt; form 2)         <      4.30
 1  O=C(O)C[C@@H](CC1CCN(C(=O)CCc2ccc3c(n2)NCCC3)CC1)c1cnc2ccccc2c1         =      5.96
 2  O=C(O)C[C@@H](CC1CCN(C(=O)CCc2ccc3c(n2)NCCC3)CC1)c1cnc2c(c1)CCCC2 (stereo in doubt; form 1)         <      4.30
 3  O=C(O)C[C@@H](CC1CCN(C(=O)CCc2ccc3c(n2)NCCC3)CC1)c1cnc2c(c1)CCCC2 (stereo in doubt; 28)         =      5.52
 4  O=C(O)C[C@@H](C1CCN(C(=O)CCCc2ccc3c(n2)NCCC3)CC1)C1CNc2ccccc2C1 (mixture of isomers)         =      4.82
 5  O=C(O)C[C@@H]1Cc2ccc(OCCCNc3ccccn3)cc2Cc2ccccc21         =      5.92
 6  O=C(O)C[C@@H](C1CCN(C(=O)CCCc2ccc3c(n2)NCCC3)CC1)C1CNc2ccccc2C1 (single isomer, unassigned; isomer d)         =      4.77
 7  O=C(O)C[C@@H](C1CCN(C(=O)CCCc2ccc3c(n2)NCCC3)CC1)C1CNc2ccccc2C1 (single isomer, unassigned; isomer b)         <      4.30
 8  CN1CC(C(CC(=O)O)CC2CCN(C(=O)CCc3ccc4c(n3)NCCC4)CC2)Cc2ccccc21 (racemic)         <      4.30
 9  O=C(O)C[C@H](c1cnc2ccccc2c1)C1CCN(C(=O)CCCc2ccc3c(n2)NCCC3)CC1         =      6.06
10  O=C(O)CC(CC1CCN(C(=O)CCc2ccc3c(n2)NCCC3)CC1)C1CNc2ccccc2C1 (racemic)         =      4.85
11  COc1ccc([C@@H](CC(=O)O)CC2CCN(C(=O)CCc3ccc4c(n3)NCCC4)CC2)cn1 (stereo in doubt; form 2)         <      4.30
12  COc1ccc([C@@H](CC(=O)O)CC2CCN(C(=O)CCc3ccc4c(n3)NCCC4)CC2)cn1 (stereo in doubt; 34)         =      5.21
13  COc1ccc([C@@H](CC(=O)O)CC2CCN(C(=O)CCc3ccc4c(n3)NCCC4)CC2)cn1 (stereo in doubt; form 1)         =      5.74
14  O=C(O)C[C@@H](C1CCN(C(=O)CCCc2ccc3c(n2)NCCC3)CC1)C1CNc2ccccc2C1 (stereo in doubt; form 1)         =      4.89
